Cited source: PubChem BioAssay (NCI)

- System: NCI-H522 lung
- experiment: NCI-60 one-dose screen, 48 h
- conditionInfo: 10 µM unless noted
Compounds without any hit were thinned out: in the full panel of roughly 83,000, 20% have a hit. Activity calls are given as the source filed them. Rule for the calls: active = growth percent below 10; inactive = the rest.
Labels: active, inactive

molecule	class
O=C(Oc1cccnc1)c1ccsc1Nc1ccnc(C(F)(F)F)c1	inactive
CC/C=C\C/C=C\C[C@H]1C/C=C2/C(=O)C=C[C@@H]2C/C=C\CCC(=O)O1	active
Cn1cc(C(=O)c2nc(-c3c[nH]c4ccc(Br)cc34)no2)c2cc(F)ccc21	inactive
C=CC(=O)Nc1cccc(-c2nc(SC)nc(Nc3cccc(OC)c3)c2C#N)c1	inactive
Cc1cc(C)c2nc3nc(C)cc(C)c3c(N)c2c1	inactive
COc1cccc(-c2nc3sccn3c2-c2ccnc(NCCNS(=O)(=O)c3ccc(F)cc3)c2)c1	inactive
O=C1C=C(OCC=C(Cl)Cl)C(=O)c2ccccc21	inactive
CC(=O)c1cc(C(=O)c2ccc3c(c2)Sc2ccccc2N3)n2ccccc12	active
COc1ccc(NC(=O)c2ccc(/C=C/C(=O)c3ncc[nH]3)cc2)cc1	inactive
Cn1c(NCCc2ccc(O)c(O)c2)nc2c1c(=O)n(Cc1ccc(Cl)c(Cl)c1)c(=O)n2C	active
Cc1c(/C=C/[N+](=O)[O-])ccc2c1[nH]c1ccccc12	inactive
CON1C(=O)CC[C@]2(C)[C@H]3CC[C@@H]4C([C@@]5(C)CCC(=O)O5)CC[C@@]4(C)[C@]3(C)CC[C@H]2C1(C)C (stereo not given in full)	inactive
N#Cc1c(-c2ccc(Cl)cc2)nc(N/N=C/c2cccc(Br)c2)nc1N1CCOCC1	inactive
CC(=O)Nc1ccc(S(=O)(=O)Nc2cccc(-c3nc(-c4ccc(NC(=O)c5cccnc5)cc4Cl)no3)c2)cc1	inactive
N#C/C(=C\c1ccc(-c2cc(C(F)(F)F)ccc2Cl)o1)c1nc(-c2ccco2)cs1	inactive
CCCCCCN(CCCCCC)C(=N)c1ccnc2ccccc12	inactive
C=C1C(=O)O[C@H]2[C@H]1CC/C(COC(=O)NCCc1ccc(OC)c(OC)c1)=C\CC[C@@]1(C)O[C@@H]21	active
C=C1c2nc3ccccc3n2C=C(c2ccc(OC)cc2)N1Cc1ccccc1	inactive
Cc1ccccc1COc1ccc(-c2onc(C)c2-c2ccc(Cl)cc2)cc1	inactive
COc1ccc(-c2cc(-c3ccc(Nc4ccnc5cc(Cl)ccc45)cc3)nc(N3CCOCC3)n2)cc1	inactive
CC(=O)c1cc2c(N)c(C(=O)Nc3ccccc3)sc2nc1C	inactive
CSc1ccc(-c2ccccc(=O)c2O)cc1	inactive
O=S(=O)(Nc1ccc(OC(F)F)cc1)c1ccc(-c2cnc(C3CC3)o2)cc1	inactive
CN(C)CCN1C(=O)c2cccc3c(N)ccc(c23)C1=O	active
Cn1cc(-c2nonc2-c2c[nH]c3ccc(F)cc23)c2cccnc21	inactive
CC(C)C[C@@H](NC(=O)[C@@H](Cc1ccccc1)NC(=O)c1cnccn1)B1Oc2ccc(C[C@H](NC(=O)[C@H](Cc3ccc4c(c3)OB([C@@H](CC(C)C)NC(=O)[C@@H](Cc3ccccc3)NC(=O)c3cnccn3)O4)NC(=O)[C@@H](N)CC3CCC4OB([C@@H](CC(C)C)NC(=O)[C@@H](CC5CCCCC5)NC(=O)C5CNCCN5)OC4C3)C(=O)NCCCC[C@@H]3NC(=O)[C@@H](Cc4ccccc4)NC(=O)[C@H](CC(=O)O)NC(=O)CNC(=O)[C@H](CCCNC(=N)N)NC3=O)cc2O1 (stereo not given in full)	active
CC1C(/C=N/Nc2ccccc2)C(C#N)(C#N)C1(C#N)C#N (stereo not given)	inactive
Cn1c(=O)c2c(nc3n(-c4ccc(Cl)cc4Cl)c(Sc4nc(-c5ccccc5)c(C#N)c(=O)[nH]4)cn23)n(C)c1=O	inactive
O=C1c2cccc3cccc(c23)C(=O)N1CCCCN1CCN(CCCCOc2ccc(-c3nc4ccc(N5CCOCC5)cc4[nH]3)cc2)CC1	inactive
COc1cc(-c2nc3ccccc3[nH]2)ccc1OCc1nnc(-c2ccc(CC(C)C)cc2)o1	inactive
CN1CCN=C1c1ccc(NC(=O)c2ccc(C(=O)Nc3ccc(C4=NCCN4C)cc3)cc2)cc1	inactive
Nc1n[nH]c2ccc([C@@H]3Nc4ccc5[nH]ncc5c4[C@H]4C5C=CC(C5)[C@@H]34)cc12 (stereo not given in full)	inactive
O=C(C(=O)c1ccc2c(c1)OCO2)c1ccc2c(c1)OCO2	inactive
COc1ccc(-c2cc(NC(=O)Nc3ccc4ncsc4c3)no2)cc1	inactive
O=C(/C=C/c1cccc([N+](=O)[O-])c1)c1ccc(O)c(CN2CCN(c3cc4c(cc3F)c(=O)c(C(=O)O)cn4C3CC3)CC2)c1	inactive
